System: HEK-293T
Assay: Multiplex assay against HEK293T
Type: toxicity, cell-based
Conditions: human, 48 h, 10 µM, compound concentration 10 uM, replicate 2
PROPERTY_LABEL: Population Fragmented Nuclei (%)

[[record]]
compound = "COc1cccc([C@@H](C)NCCCc2ccccc2Cl)c1.Cl [TECALCET HYDROCHLORIDE]"
target = "HEK-293T"
reported_value = 4

[[record]]
compound = "COc1ncc(-c2ccc3nccc(-c4ccnnc4)c3c2)cc1NS(=O)(=O)c1ccc(F)cc1F [OMIPALISIB]"
target = "HEK-293T"
reported_value = 8

[[record]]
compound = "C[C@@H](NCCCc1cccc(C(F)(F)F)c1)c1cccc2ccccc12.Cl [CINACALCET HYDROCHLORIDE]"
target = "HEK-293T"
reported_value = 6

[[record]]
compound = "CN(C)C(=O)/C(C#N)=C/c1ccc(-c2nc3cnc4[nH]ccc4c3n2C2CCCCC2)o1"
target = "HEK-293T"
reported_value = 18

[[record]]
compound = "CCn1c(=O)c(-c2ccc(Cl)cc2Cl)cc2cnc(Nc3ccc(N4CCNCC4)c(F)c3)nc21"
target = "HEK-293T"
reported_value = 32

[[record]]
compound = "CC[C@H](C)C(=O)O[C@H]1C[C@@H](C)C=C2C=C[C@H](C)[C@H](CC[C@@H]3C[C@@H](O)CC(=O)O3)[C@H]21 [LOVASTATIN]"
target = "HEK-293T"
reported_value = 5

[[record]]
compound = "Cn1cc(-c2[nH]c3cc(NC(=O)[C@H](N)C4CCCCC4)cc4c3c2C=NNC4=O)cn1"
target = "HEK-293T"
reported_value = 5

[[record]]
compound = "C=CC(=O)Nc1cccc(C(=O)Nc2ccc(Nc3cc(-c4[nH]c(SC)nc4C)ccn3)cc2)c1"
target = "HEK-293T"
reported_value = 8

